Values compiled from patent US20230048888A1.

# PROTOCOL TEXT: Pharmacokinetics of acetate of Compound 22 in SD rats with single and repeated administration
# Assay type: in vivo
# APPLIED CONDITIONS: both sexes, Sprague-Dawley, rat, plasma, Group 1 IV 2.0 mg/kg single, Overall, read-out: Vss
# Procedure: The formulation for Group 5 was prepared before administration on Day 1, and then, divided into daily doses and stored at 5±3° C. […] Pharmacokinetic data was calculated using the linear logarithmic trapezoidal method, with a weight of 1/(Y*Y). Samples with the sample concentration below the lower limit of quantification were excluded from the calculation of pharmacokinetic parameters. […]
QUANTITY KIND: Vd
Quick note: unit goes after the number.

The measured Vd associated with CC(=O)O.Nc1nc(NCCc2ccc(NC3COC3)cc2)nc2nc(-c3ccco3)nn12 [Acetate of Compound 22] reads 0.457 L/kg
